Reference source: ChEMBL document CHEMBL4138211

# Test system: A549
# experimental_details: Induction of apoptosis in human A549 cells by acridine orange/ethidium bromide staining-based fluorescence microscopic analysis
# Type: functional, cell-based
Active and inactive are the calls of the source. No cut-off for these calls is given here.
Outcome codes: y = active, n = inactive

- smiles_repr: "Cc1ccc2[nH]c3c(c2c1)CC[C@]1(C3=O)[C@@H](c2ccccc2)[C@@H](c2ccccc2)N[C@@]12C(=O)Nc1ccccc12"
  experimental_target: "A549"
  assigned_label: "n"
- smiles_repr: "O=C1Nc2ccccc2[C@]12N[C@H](c1ccccc1)[C@H](c1cccs1)[C@@]21CCc2c([nH]c3ccccc23)C1=O"
  experimental_target: "A549"
  assigned_label: "y"
- smiles_repr: "O=C1Nc2ccccc2[C@]12N[C@H](c1ccccc1)[C@H](c1cccs1)[C@@]21CCc2c([nH]c3ccc(Cl)cc23)C1=O"
  experimental_target: "A549"
  assigned_label: "y"
- smiles_repr: "O=C1Nc2ccccc2[C@]12N[C@H](c1ccccc1)[C@H](c1ccccc1)[C@@]21CCc2c([nH]c3ccc(Cl)cc23)C1=O"
  experimental_target: "A549"
  assigned_label: "n"
- smiles_repr: "Cc1ccc2[nH]c3c(c2c1)CC[C@]1(C3=O)[C@@H](c2cccs2)[C@@H](c2ccccc2)N[C@@]12C(=O)Nc1ccccc12"
  experimental_target: "A549"
  assigned_label: "y"
- smiles_repr: "COc1ccc([C@H]2[C@@H](c3ccccc3)N[C@@]3(C(=O)Nc4ccccc43)[C@]23CCc2c([nH]c4ccc(C)cc24)C3=O)cc1"
  experimental_target: "A549"
  assigned_label: "n"
- smiles_repr: "O=C1Nc2ccccc2[C@]12N[C@H](c1ccccc1)[C@H](c1ccccc1)[C@@]21CCc2c([nH]c3ccccc23)C1=O"
  experimental_target: "A549"
  assigned_label: "n"
- smiles_repr: "COc1ccc([C@H]2[C@@H](c3ccccc3)N[C@@]3(C(=O)Nc4ccccc43)[C@]23CCc2c([nH]c4ccc(Cl)cc24)C3=O)cc1"
  experimental_target: "A549"
  assigned_label: "n"
